Data credit: PubChem BioAssay AID1645864

target: Ubiquitin carboxyl-terminal hydrolase 17-like protein 5 (Homo sapiens); test: ubiquitin-specific protease 17 DUB inhibitors, concentration-effect assay, cell-free, verification of initial screening actives (AID 1645864); conditions: purified USP17, ubiquitin-rhodamine cleavage fluorescence, 3 h
Calls of active or inactive are those of the source.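 How the source made its calls: active means maximal inhibition of USP17 at or above 30% in the confirmation dose-response, a value not among the printed readouts; inactive means the rest.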
value_kind: IC50

Consider the worked cases shown below.
O=C1C[C@@H](O)[C@H](O)[C@@]23O[C@@]12C1(Oc2cccc4cccc(c24)O1)[C@@H]1O[C@@H]1[C@@H]3O    22 µM
COc1ccccc1S(=O)(=O)N1CC[C@@H]2CN(C)[C@@H]2C1    32.2 µM

For each listed entry, give its IC50.
1. O=C(Cn1cc(C(=O)C(F)(F)F)c2ccccc21)N1CCc2ccccc21
2. COc1ccc(COc2ccc3c(C)c(CC(=O)N4CC[C@@]5(O)CCCC[C@H]5C4)c(=O)oc3c2)cc1
3. CS(=O)(=O)c1ccc(NC(=O)C2CN(c3nc4c(F)cccc4s3)C2)cc1
4. O=C1N(Cc2ccc(F)cc2)CCN1c1ccc2c(c1)CCC2
5. Cc1ccc2c(c1)[C@]1(C(=O)N2)[C@@H]2C(=O)N(c3cccc(C(F)(F)F)c3)C(=O)[C@@H]2C2CCCN21 (stereo not given in full)

1. 3.5 µM
2. 2.55 µM
3. 36.2 µM
4. > 50 µM (inactive)
5. > 50 µM (inactive)

====

target: Ubiquitin carboxyl-terminal hydrolase 17-like protein 5 (Homo sapiens); experiment: ubiquitin-specific protease 17 DUB inhibitors, concentration-effect assay, cell-free, verification of initial screening actives (AID 1645864); settings: purified USP17, ubiquitin-rhodamine cleavage fluorescence, 3 h
Active and inactive are the calls of the source.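 The calls were made as follows: active = maximal inhibition of USP17 at or above 30% in the confirmation dose-response, a value not among the printed readouts; inactive = the rest.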
API: response.call in active, inactive

Reference set, count: 5
Cc1ccc(NC(=O)CSc2nc3c(cc2C#N)C(=O)CCC3)cc1    active
O=S(=O)(c1cccc2cccnc12)N(CCc1ccccc1)C1CCN(CCc2ccc(Cl)cc2)CC1    inactive
CN1C(=O)COc2ccc(NC(=O)c3cc(-c4ccccc4)on3)cc21    active
COc1ccc(CNC(=O)Nc2cccc3ccccc23)cc1    active
CCOc1ccc2nc(NC(=O)C3CCN(S(=O)(=O)c4ccc5c(c4)CC(C)N5C(C)=O)CC3)sc2c1 (stereo not drawn)    inactive

# fetch the recorded call for N#C/C(=C/c1sc(N2CCOCC2)nc1-c1ccccc1)c1ccccn1 here
inactive

Query: recorded result category for O=C1CC(C(=O)Nc2ccccc2F)n2nc(-c3ccccc3)cc2N1 (stereo not drawn) in this test
active

Which outcome was entered for the compound CC1Cc2ccccc2N1C(=O)Cn1c(=O)cc(O)c2ccccc21 (stereo not drawn) in this test?
inactive

Per the records of this test, what outcome belongs to Fc1ccccc1N1CCN(c2ncc3c(n2)CCN(Cc2ccccn2)C3)CC1 ?
active

Which outcome did this test record for the compound CCCNC(=O)c1ccn(-c2ccc3ccc(-c4cnn(C)c4)cn23)n1 ?
inactive

====

target: Ubiquitin carboxyl-terminal hydrolase 17-like protein 5 (Homo sapiens) (UniProt A8MUK1); experiment: ubiquitin-specific protease 17 DUB inhibitors, concentration-effect assay, cell-free, verification of initial screening actives (AID 1645864); settings: purified USP17, ubiquitin-rhodamine cleavage fluorescence, 3 h
Sequence (A8MUK1 whole entry, looked up): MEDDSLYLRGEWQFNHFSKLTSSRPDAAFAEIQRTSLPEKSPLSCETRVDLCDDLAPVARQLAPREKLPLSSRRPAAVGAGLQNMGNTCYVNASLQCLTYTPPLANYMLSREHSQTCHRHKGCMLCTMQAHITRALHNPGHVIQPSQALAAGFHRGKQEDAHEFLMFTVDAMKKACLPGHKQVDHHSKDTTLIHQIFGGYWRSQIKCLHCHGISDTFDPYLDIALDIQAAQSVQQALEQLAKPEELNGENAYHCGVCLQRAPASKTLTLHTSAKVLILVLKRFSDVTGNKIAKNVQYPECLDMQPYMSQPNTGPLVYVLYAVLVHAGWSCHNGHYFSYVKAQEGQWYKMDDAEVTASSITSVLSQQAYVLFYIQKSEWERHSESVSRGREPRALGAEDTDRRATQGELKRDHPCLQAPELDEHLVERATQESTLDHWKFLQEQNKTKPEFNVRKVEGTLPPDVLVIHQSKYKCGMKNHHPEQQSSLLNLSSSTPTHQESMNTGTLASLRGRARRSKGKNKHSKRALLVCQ
Active and inactive are the calls of the source.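 Rule for the calls: active = maximal inhibition of USP17 at or above 30% in the confirmation dose-response, a value not among the printed readouts; inactive = the rest.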
For each record, write down the corresponding IC50.

Before answering, review these 2 worked examples.
Cc1ccc(N=Cc2sc(O)c3ccccc23)c(C)c1    > 50 µM (inactive)
CC(CCc1ccccc1)NC(=O)C(=O)c1cn(CC(=O)N2CCOCC2)c2ccccc12 (stereo not drawn)    > 50 µM (inactive)

Okay, next one:
Look up IC50: CCCOc1ccc(C(=O)Nc2ccc(S(=O)(=O)Nc3cc(C)nc(C)n3)cc2)cc1
> 50 µM (inactive)

====

target: Ubiquitin carboxyl-terminal hydrolase 17-like protein 5 (Homo sapiens) (UniProt A8MUK1); experiment: ubiquitin-specific protease 17 DUB inhibitors, concentration-effect assay, cell-free, verification of initial screening actives (AID 1645864); settings: purified USP17, ubiquitin-rhodamine cleavage fluorescence, 3 h
Active and inactive are the calls of the source.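 Rule for the calls: active = maximal inhibition of USP17 at or above 30% in the confirmation dose-response, a value not among the printed readouts; inactive = the rest.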
// allowed return values: active, inactive

Previously resolved entries follow.
Cc1cc(C)cc(NC(=O)CN2C(=O)CC(c3ccccc3)Sc3ccccc32)c1 (stereo unspecified)    inactive
N#Cc1cn(CC(=O)N2CCc3ccccc32)c2ccccc12    active
CC(C)(C)C(=O)C1C2C(=O)N(Cc3ccccc3)C(=O)C2C2c3ccccc3C=CN12 (stereo unspecified)    inactive
COC(=O)C1C(c2ccc(Cl)cc2Cl)C2(C(=O)c3ccccc3C2=O)C2C=Cc3ccccc3N12 (stereo unspecified)    inactive
Cc1nnc(NCc2cccnc2)c2c1nnn2Cc1ccccc1Cl    active

Returns: the outcome recorded for O=C(NC1CCS(=O)(=O)C1)c1ccc(N2CCC(Cc3ccccc3)CC2)nn1 (stereo unspecified) in this assay.
inactive

Assay result, entry CC1(C)Cc2c(c(-c3ccco3)nc3sc4c(SCCCc5ccccc5)ncnc4c23)CO1 — outcome?
active

Please state the recorded outcome for this molecule: CCOc1ccc(-c2nc(C#N)c(N3CCN(C(=O)c4ccccc4C)CC3)o2)cc1
active

Which outcome was entered for the molecule COC(=O)c1sc2ccccc2c1NC(=O)c1ccc(Br)s1 in this test?
active

Any idea what this test logged for Cc1ccc(Cn2c(=O)n(CCC(=O)NCCc3ccccc3)c(=O)c3ccccc32)cc1 ?
active

How was C=C1CCC2[C@](C)(CCC[C@]2(C)C(=O)OC)[C@H]1CCc1ccoc1CNC(C)C (stereo partly specified) classified in this test?
inactive

====

biological target: Ubiquitin carboxyl-terminal hydrolase 17-like protein 5 (Homo sapiens) (UniProt A8MUK1); experiment: ubiquitin-specific protease 17 DUB inhibitors, concentration-effect assay, cell-free, verification of initial screening actives (AID 1645864); details: purified USP17, ubiquitin-rhodamine cleavage fluorescence, 3 h
Calls of active or inactive are those of the source.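 The calls were made as follows: active = maximal inhibition of USP17 at or above 30% in the confirmation dose-response, a value not among the printed readouts; inactive = the rest.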
Result category, one only: active, inactive

O=C(COC(=O)CCc1ccc(S(=O)(=O)N2CCOCC2)cc1)Nc1ccc2c(c1)OCCO2    inactive
COc1ccc(C(=O)Nc2cc3c4c(c2)C(C)C(=O)N4CCC3)cc1 (configuration not stated)    inactive
CCC1OC(O)(C(C)C(O)C(C)C2OC(=O)/C(C)=C/C(C)=CC(C)C(O)C(C)C/C(C)=C/C=C/C2OC)CC(OC(=O)/C=C/C(=O)NC2=C(O)CCC2=O)C1C (configuration not stated)    inactive
COc1ccc(C2CC(c3ccc(C)cc3)N(C(=O)C3CC3)c3ncnn32)cc1 (configuration not stated)    inactive
COc1ccc(-c2nonc2NC(=O)C(c2ccccc2)c2ccccc2)cc1OC    inactive
COc1ccc(CNC(=O)CN2C(=O)CC(c3ccccc3)=Nc3ccccc32)cc1    active

Next, consider the following compound.
# fetch the recorded call for O=C(Nc1oc2ccccc2c(=O)c1-c1ccc2c(c1)OCO2)C1CCCCC1 here
active

====

molecular target: Ubiquitin carboxyl-terminal hydrolase 17-like protein 5 (Homo sapiens) (UniProt A8MUK1); assay: ubiquitin-specific protease 17 DUB inhibitors, concentration-effect assay, cell-free, verification of initial screening actives (AID 1645864); conditions: purified USP17, ubiquitin-rhodamine cleavage fluorescence, 3 h
The source made the active and inactive calls.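 Rule for the calls: active = maximal inhibition of USP17 at or above 30% in the confirmation dose-response, a value not among the printed readouts; inactive = the rest.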
Give your call using only these classes: 1.0 (active), 0.0 (inactive)

Worked set:
Cc1ccc(/C=C/C(=O)Nc2ccc3c(c2)OCCO3)cc1    0.0
COc1ccc(Cn2c(SCc3ccc(C(=O)NCCc4ccccc4)cc3)nc3ccncc32)cc1    0.0
COc1cccc(NC(=O)Cc2sc(Nc3cc(C)cc(C)c3)nc2O)c1    1.0
Cc1cc(N2CCN(c3ncccn3)CC2)nc2ccc(NC(=O)c3ccncc3)cc12    1.0
Cc1c(C(=O)Nc2cccc(C(F)(F)F)c2)cnn1-c1ccccn1    1.0
CCCc1c(C(=O)O)c(O[C@H]2O[C@H](C)[C@@H](OC)[C@H](OC)[C@@H]2OC)cc2cc3c(c(O)c12)C(=O)c1c(O)cc(O[C@@H]2O[C@@H](C)[C@H](O[C@H]4O[C@H](C)[C@@H](OC)[C@H](OC)[C@@H]4O)[C@@H](OC)[C@H]2O)cc1C3=O    0.0
COc1ccc(-c2[nH]c3ccccc3c2SCCNC(=O)c2ccc(S(=O)(=O)N3CCOCC3)cc2)cc1    1.0
Cc1cc(NC(=O)c2cc(-c3cccnc3)n[nH]2)ccc1Br    1.0

Per the assay record, what outcome was assigned to COc1ccc(CNC(=O)CCc2nnc3n(Cc4ccccc4Cl)c(=O)c4ccccc4n23)cc1 ?
1.0

What did this assay record as the result for COc1cc(OC)cc(-c2nc(-c3cn(-c4cccc(F)c4)nn3)no2)c1 ?
1.0

Just curious, what result did COc1ccc(CCn2cnc3c([nH]c4ccccc43)c2=O)cc1 get here?
1.0

Recorded test call requested for N#Cc1c(Cl)cccc1Oc1ccc(S(=O)(=O)N2CCC(O)CC2)cc1
1.0

====

molecular target: Ubiquitin carboxyl-terminal hydrolase 17-like protein 5 (Homo sapiens) (UniProt A8MUK1); experiment: ubiquitin-specific protease 17 DUB inhibitors, concentration-effect assay, cell-free, verification of initial screening actives (AID 1645864); conditions: purified USP17, ubiquitin-rhodamine cleavage fluorescence, 3 h
Activity calls are given as the source filed them.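 Rule for the calls: active = maximal inhibition of USP17 at or above 30% in the confirmation dose-response, a value not among the printed readouts; inactive = the rest.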
// one of 1 (yes) for active, 0 (no) for inactive, no free text

Would you please look over these solved cases?
COc1ccc(CNC(=O)CCc2nc3sc4c(c3c(=O)[nH]2)CCCCC4)cc1    0 (no)
CCOC(=O)c1c(C)oc2nc(CSc3ccccc3)[nH]c(=O)c12    0 (no)
O=C(COc1cccc(C(=O)NCc2ccccc2)c1)Nc1ccc(Oc2ccccc2)cc1    1 (yes)
Cc1cccc(C(=O)Nc2cccc(SC(C(=O)Nc3ccc(Cl)c(C(=O)O)c3)c3ccccc3)c2)c1 (stereo unspecified)    1 (yes)
COc1ccccc1NC(=O)Cn1cc(C(=O)c2ccc(C)cc2)c(=O)c2cc(Cl)ccc21    1 (yes)
O=C(COC(=O)c1ccc(Cl)cc1)Nc1ccc2[nH]c(=O)[nH]c2c1    1 (yes)
Cc1ccc(NC(=O)c2cnc3c(c2)c(=O)n(C)c(=O)n3C)cc1    1 (yes)
COc1ccc(C(C(=O)NCc2ccccc2)N(C(=O)CCN2CCc3ccccc32)c2ccc(C)c(C)c2)cc1 (stereo unspecified)    0 (no)

What is the recorded call for this compound in the test? CC(C)(C)C(=O)C1C2C(=O)N(c3ccc4c(c3)OCO4)C(=O)C2C2c3ccccc3C=CN12 (stereo unspecified)
0 (no)

What outcome does the record of this test show for COC(=O)c1ccc2c(=O)n(CCCCCC(=O)NCCc3ccc(S(N)(=O)=O)cc3)c(=O)[nH]c2c1 ?
1 (yes)

Per the records of this test, what outcome belongs to O=C(OC1CSc2nc3ccccc3n2C1)c1ccc([N+](=O)[O-])o1 (stereo unspecified) ?
1 (yes)

GET /call?item= O=C(Cn1c(=O)n(Cc2ccc(F)cc2)c(=O)c2sccc21)Nc1cccc(Cl)c1 returns the recorded outcome of this test.
1 (yes)

Hi, do you know how CN1CC2CN(C(=O)Nc3cccnc3)CCN2Cc2ccccc21 (stereo unspecified) came out in this test?
0 (no)
